Measured kon, listed per entry.
# Study target: T1, recombinant mouse soluble gpNMB (recombinant mouse gpNMB-FLAG-His) (mouse, UniProt Q99P91 23-502)
# T1 sequence: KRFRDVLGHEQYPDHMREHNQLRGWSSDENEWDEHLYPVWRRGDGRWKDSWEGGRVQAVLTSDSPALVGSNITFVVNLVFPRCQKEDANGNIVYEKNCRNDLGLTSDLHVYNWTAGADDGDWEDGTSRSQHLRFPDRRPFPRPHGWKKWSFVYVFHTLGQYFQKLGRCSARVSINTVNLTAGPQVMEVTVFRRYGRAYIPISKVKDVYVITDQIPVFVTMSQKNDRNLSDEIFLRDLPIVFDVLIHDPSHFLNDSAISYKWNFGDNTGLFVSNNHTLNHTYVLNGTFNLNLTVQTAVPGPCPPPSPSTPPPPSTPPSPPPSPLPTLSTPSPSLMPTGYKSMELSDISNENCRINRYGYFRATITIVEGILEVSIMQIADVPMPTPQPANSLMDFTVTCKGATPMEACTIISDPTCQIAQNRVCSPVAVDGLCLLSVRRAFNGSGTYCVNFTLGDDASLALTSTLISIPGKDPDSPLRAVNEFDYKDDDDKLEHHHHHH
# Assay summary: SPR, antibody 100 nM over captured gpNMB-FLAG-His, 25C
// units = M⁻¹ s⁻¹; emit number, no label

As a guide, the following entries are already answered.
GPN18-7 (antibody, V domains shown, monoclonal with mouse IgG constant regions) VH: QVTLKESGPGILQPSQTLSLTCSFSGFSLSTSVMGVGWIRQPSGKGLEWLADIWWDDDKDYNPSLKSRLTISKDTSKNQVFLKIASVDTADTATYYCARAYYSNFEYYGMDYWGQGTSVTVSS VL: DVLMTQIPLSLPVSLGDQASISCRSSQTIVHSNGNTYLEWYLQKPGQSPKLLIYKVSNRFSGVPDRFSGSGSGTDFTLKISRVEAEDLGVYYCFQGSHVPFTFGSGTKLEIK :: 20000
GPN09-1 (antibody, V domains shown, monoclonal with mouse IgG constant regions) VH: QVQLKASGPGLVQPSQTLSLTCTVSGLSLTSININWIRQPPGKGLEWMGVIWSDGDTDFNSAVKSRLSISRDTSKSQVFLNMNSLQTEDTAMYFCARGIRDWGQGVMVTVSS VL: DIVMTQTPLSLSVAIGQSASISCKSSQSLKYSDGKTYLNWVFQSPGQSPKRLIYQVSKLDSGVPDRFSGTGSETDFTLKISRVEAEDLGVYYCCQGSYSPHTFGSGTKLEIK :: 160000
GPN15-2 (antibody, V domains shown, monoclonal with mouse IgG constant regions) VH: QVQLQQPGAELVKPGASVKMSCKASGYTFTNHNMHWVKQTPGQGLEWIGAFYTGNGDTSYNQKFKGKATLTADKSSSTAYIQLSSLTSEDSAVYYCARERYDGYYIAMDYWGQGTSVTVSS VL: QIVLTQSPAFMSVSPGEKVTMTCSASSSVYYMFWYQQKPRSSPKPWIYLTSKLASGVPARFSGSGSGTSYSVTISSMEAEDAATYYCQQWSSNPQWTFGGGTKLEIK :: 140000
GPN06-1 (antibody, V domains shown, monoclonal with mouse IgG constant regions) VH: QVQLQQPGAEIVRPGASVKLSCKASGYTFTDNWMGWVKQRPGQGLEWIGAIDPSDSFTNYNQNFKGKATLTVDTSSSTAYMQLSSLTSEDSAVYFCTRSGYYGSPKLGGDYWGQGTTLTVSS VL: QIVLTQSPAIMSASLGEEITLTCSASSSISYMHWYQQKSGTSPKLLIYSTSNLASGVPSRFSGSGSGTFYSLTISSVEAEDAADYYCHQWNSYPCTFGGGTKLEIK :: 150000

Consider the record given below.
Determine from records and report kon for GPN18-4 (antibody, V domains shown, monoclonal with mouse IgG constant regions) VH: QVQLQQSGAELTKPGTSVKMSCKASGYTLSSYWMNWIKQRPGQGLEWIGTINPSNNYTAYNLKFKDKAMLTADKSSSTAYMQLSSLTSEDSAVYYCATWGYWGQGTTLTVSS VL: DIVMTQSHKFMSTSVGDRVSITCKASQDVSTAVAWHQQKPGQPPKLLIYSASYRYTGVPDRFTGSGSGTDFTFTISSVQTEDLAIYYCQHHYTTTWTFGGGTKLEIR
30000

These entries and their values trace back to patent EP4772193A1.
